// data source = the supplement of paper PMC10724198

- System: Saccharomyces cerevisiae
- METHOD DESCRIPTION: protein stability index of tFT-peptide fusion (C-terminal peptide) (PSI (0-1 scale)); higher = more stable (slower turnover)
- PROTOCOL CONDITIONS: genetic background: das1 deletion; temperature: 30 C
Listed here: items and their measured protein stability index.

{"SEQUENCE DATA": "KEANPIKITPQP [MDL2 C-terminal 12 aa]", "protein stability index": 0.682}
{"SEQUENCE DATA": "ERPQDWFEDIGE [FCY1 C-terminal 12 aa]", "protein stability index": 0.717}
{"SEQUENCE DATA": "ITLESGSYKFQD [SRP40 C-terminal 12 aa]", "protein stability index": 0.695}
{"SEQUENCE DATA": "QIADDRPWCRME [YHC3 C-terminal 12 aa]", "protein stability index": 0.705}
{"SEQUENCE DATA": "LGMINTVVSLDR [YBR221W-A C-terminal 12 aa]", "protein stability index": 0.691}
{"SEQUENCE DATA": "HELIKKRWDDRK [NCE101 C-terminal 12 aa]", "protein stability index": 0.712}
{"SEQUENCE DATA": "PAAVFAETLKHD [RPL4B C-terminal 12 aa]", "protein stability index": 0.686}
{"SEQUENCE DATA": "MKFNVISFLFHK [NAM2 C-terminal 12 aa]", "protein stability index": 0.688}
{"SEQUENCE DATA": "PTIVGGLYYQRP [AAR2 C-terminal 12 aa]", "protein stability index": 0.7}
{"SEQUENCE DATA": "NTNELTDEHRWI [PHO2 C-terminal 12 aa]", "protein stability index": 0.698}
{"SEQUENCE DATA": "PSNASNTTTRRP [YKR045C C-terminal 12 aa]", "protein stability index": 0.703}
{"SEQUENCE DATA": "KHKNILSFNNNT [YDR543C C-terminal 12 aa]", "protein stability index": 0.687}
{"SEQUENCE DATA": "VFTPFLFGELIG [ERG1 C-terminal 12 aa]", "protein stability index": 0.718}
{"SEQUENCE DATA": "SLENVAMLVYKK [TRM13 C-terminal 12 aa]", "protein stability index": 0.698}
{"SEQUENCE DATA": "KLTSTVTLNLLY [YGR107W C-terminal 12 aa]", "protein stability index": 0.692}
{"SEQUENCE DATA": "HETFDFRNLKLR [YER121W C-terminal 12 aa]", "protein stability index": 0.701}

----------
- Test system: Saccharomyces cerevisiae
- METHOD DESCRIPTION: protein stability index of tFT-peptide fusion (C-terminal peptide) (PSI (0-1 scale)); higher = more stable (slower turnover)
- PROTOCOL CONDITIONS: genetic background: wild type; temperature: 30 C
RECORDED METRIC: protein stability index

{"SEQUENCE DATA": "LREETKREDDKQ", "RECORDED METRIC": "protein stability index", "VALUE": 0.814}
{"SEQUENCE DATA": "AHPLSVSSFLSF", "RECORDED METRIC": "protein stability index", "VALUE": 0.671}
{"SEQUENCE DATA": "LIDLLRQVNVLR", "RECORDED METRIC": "protein stability index", "VALUE": 0.649}
{"SEQUENCE DATA": "FRSFLSKLNGLF", "RECORDED METRIC": "protein stability index", "VALUE": 0.636}
{"SEQUENCE DATA": "APSCRVPPLPPP", "RECORDED METRIC": "protein stability index", "VALUE": 0.708}
{"SEQUENCE DATA": "LSGSRAFVTVVL", "RECORDED METRIC": "protein stability index", "VALUE": 0.644}
{"SEQUENCE DATA": "LGGGVLDVRGQL", "RECORDED METRIC": "protein stability index", "VALUE": 0.711}
{"SEQUENCE DATA": "TRLVRQLNNNLE", "RECORDED METRIC": "protein stability index", "VALUE": 0.667}
{"SEQUENCE DATA": "GPCPHLGLVVES", "RECORDED METRIC": "protein stability index", "VALUE": 0.703}
{"SEQUENCE DATA": "RGKIKKTRKDNK", "RECORDED METRIC": "protein stability index", "VALUE": 0.598}
{"SEQUENCE DATA": "FPRSMPSPPSSE", "RECORDED METRIC": "protein stability index", "VALUE": 0.623}
{"SEQUENCE DATA": "FSFFPLLARYFF", "RECORDED METRIC": "protein stability index", "VALUE": 0.499}
{"SEQUENCE DATA": "RWCRLGHRWRVV", "RECORDED METRIC": "protein stability index", "VALUE": 0.563}
{"SEQUENCE DATA": "TNVPVLTLMVYL", "RECORDED METRIC": "protein stability index", "VALUE": 0.591}
{"SEQUENCE DATA": "PLHDGRFANDSF", "RECORDED METRIC": "protein stability index", "VALUE": 0.674}
{"SEQUENCE DATA": "PPSLPPLPFSTP", "RECORDED METRIC": "protein stability index", "VALUE": 0.735}
{"SEQUENCE DATA": "GKRKGETGNRGG", "RECORDED METRIC": "protein stability index", "VALUE": 0.741}
{"SEQUENCE DATA": "GATGGACGVWAG", "RECORDED METRIC": "protein stability index", "VALUE": 0.668}
{"SEQUENCE DATA": "LKKIEPRKNDKI", "RECORDED METRIC": "protein stability index", "VALUE": 0.719}
{"SEQUENCE DATA": "PPLLHPLPPPLP", "RECORDED METRIC": "protein stability index", "VALUE": 0.659}
{"SEQUENCE DATA": "RGSSPRAVTVWM", "RECORDED METRIC": "protein stability index", "VALUE": 0.804}
{"SEQUENCE DATA": "RKGERRKKKKRR", "RECORDED METRIC": "protein stability index", "VALUE": 0.677}
{"SEQUENCE DATA": "ATPPSPLPPSPP", "RECORDED METRIC": "protein stability index", "VALUE": 0.754}
{"SEQUENCE DATA": "GAMLAGRQGWGL", "RECORDED METRIC": "protein stability index", "VALUE": 0.679}
{"SEQUENCE DATA": "PTLPGEQPRSWQ", "RECORDED METRIC": "protein stability index", "VALUE": 0.67}
{"SEQUENCE DATA": "ALGVHGKFEWIK", "RECORDED METRIC": "protein stability index", "VALUE": 0.668}
{"SEQUENCE DATA": "LFFFSFSFLFFL", "RECORDED METRIC": "protein stability index", "VALUE": 0.278}
{"SEQUENCE DATA": "SLALPLLPPSSP", "RECORDED METRIC": "protein stability index", "VALUE": 0.739}
{"SEQUENCE DATA": "PSLFFLPPPPSP", "RECORDED METRIC": "protein stability index", "VALUE": 0.695}
{"SEQUENCE DATA": "PFAFLSPLIPPP", "RECORDED METRIC": "protein stability index", "VALUE": 0.749}
{"SEQUENCE DATA": "PRHGSPASPRPP", "RECORDED METRIC": "protein stability index", "VALUE": 0.636}
{"SEQUENCE DATA": "GKCKRYENISKR", "RECORDED METRIC": "protein stability index", "VALUE": 0.629}
{"SEQUENCE DATA": "LSSPPAPPPPPR", "RECORDED METRIC": "protein stability index", "VALUE": 0.677}
{"SEQUENCE DATA": "ECAGVVRAKLPA", "RECORDED METRIC": "protein stability index", "VALUE": 0.718}
{"SEQUENCE DATA": "TPMGFSRFLLSL", "RECORDED METRIC": "protein stability index", "VALUE": 0.553}
{"SEQUENCE DATA": "WTSPRISPRSPL", "RECORDED METRIC": "protein stability index", "VALUE": 0.726}
{"SEQUENCE DATA": "PPRPPAALPRLL", "RECORDED METRIC": "protein stability index", "VALUE": 0.714}
{"SEQUENCE DATA": "KKKKQKNNRKKP", "RECORDED METRIC": "protein stability index", "VALUE": 0.574}
